Biological target: 5-lipoxygenase (5-LO) enzyme (Homo sapiens, UniProt P09917)
Construct: the enzyme in the cytosol was partially purified by ammonium sulphate fractionation; endogenous in cells; host or cells: human polymorphonuclear leukocytes (sonicated, cytosol, ammonium sulphate fraction)
Sequence (P09917 whole entry): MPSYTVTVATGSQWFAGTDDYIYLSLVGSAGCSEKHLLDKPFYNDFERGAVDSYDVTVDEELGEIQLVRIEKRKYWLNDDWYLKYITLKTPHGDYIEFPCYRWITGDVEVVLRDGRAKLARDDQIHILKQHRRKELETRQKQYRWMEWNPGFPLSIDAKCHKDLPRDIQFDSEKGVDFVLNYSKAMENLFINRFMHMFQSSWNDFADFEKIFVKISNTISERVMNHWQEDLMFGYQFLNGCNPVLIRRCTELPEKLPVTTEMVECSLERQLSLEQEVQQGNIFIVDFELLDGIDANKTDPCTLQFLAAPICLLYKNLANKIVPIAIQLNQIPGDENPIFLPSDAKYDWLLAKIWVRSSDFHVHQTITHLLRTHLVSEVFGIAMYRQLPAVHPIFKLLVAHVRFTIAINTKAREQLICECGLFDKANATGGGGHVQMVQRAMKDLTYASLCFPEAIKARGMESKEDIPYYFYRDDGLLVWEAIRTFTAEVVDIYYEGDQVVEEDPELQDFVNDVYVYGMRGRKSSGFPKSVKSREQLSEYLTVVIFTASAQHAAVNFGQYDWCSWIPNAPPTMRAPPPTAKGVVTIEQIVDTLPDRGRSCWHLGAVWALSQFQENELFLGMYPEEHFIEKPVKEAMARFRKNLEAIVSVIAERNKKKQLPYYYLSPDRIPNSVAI
Experiment: Determination of 5-LO enzyme activity of human leukocytes by measuring their leukotriene B4 production (whole cell)
Type: cell-based
Conditions: human PMN leukocytes, LTB4 release, ionophore A-23187 0.001 mM, pH 7.2, 37° C., 15 minutes, RIA; read-out: 5-lipoxygenase enzyme inhibition, in whole cell, IC50
pIC50: −log10 of the molar value.

{"columns": ["MOLECULE", "SYSTEM TESTED", "pIC50"],
 "data": [
  ["COc1cc2c(cc1O)[C@@H]1CC=C[C@@H]1O2 (relative stereo)", "5-lipoxygenase (5-LO) enzyme (Homo sapiens, UniProt P09917)", 6.52],
  ["Cc1c(C)c2c(c(C)c1O)C1CCCCCC1O2 (stereo not drawn)", "5-lipoxygenase (5-LO) enzyme (Homo sapiens, UniProt P09917)", 7.15],
  ["Cc1c(C)c2c(c(C)c1O)[C@@H]1CCC[C@@H]1O2 (relative stereo)", "5-lipoxygenase (5-LO) enzyme (Homo sapiens, UniProt P09917)", 7.30],
  ["Cc1c(C)c2c(c(C)c1O)[C@@H]1CC=C[C@@H]1O2 (relative stereo)", "5-lipoxygenase (5-LO) enzyme (Homo sapiens, UniProt P09917)", 6.17],
  ["CCOc1cc2c(cc1O)[C@@H]1CC=C[C@@H]1O2 (relative stereo)", "5-lipoxygenase (5-LO) enzyme (Homo sapiens, UniProt P09917)", 6.52],
  ["Cc1c(O)cc2c(c1C)O[C@H]1CCC[C@@H]21 (relative stereo)", "5-lipoxygenase (5-LO) enzyme (Homo sapiens, UniProt P09917)", 6.52],
  ["Cc1c(O)cc2c(c1C)O[C@H]1C=CC[C@@H]21 (relative stereo)", "5-lipoxygenase (5-LO) enzyme (Homo sapiens, UniProt P09917)", 6.30],
  ["CC1=C(C)C(=O)C(CCCCC#CCCCC#CCO)=C(C)C1=O [AA-861, reference compound]", "5-lipoxygenase (5-LO) enzyme (Homo sapiens, UniProt P09917)", 5.96],
  ["Cc1c(C)c2c(c(C)c1O)[C@H]1CCC=C[C@H]1O2 (relative stereo)", "5-lipoxygenase (5-LO) enzyme (Homo sapiens, UniProt P09917)", 6.85]
]}

Taken from patent US5716986A.
